Test: qHTS assay to identify small molecule phospholipidosis (PLD) inducers (AID 1259344)
Settings: HepG2 phospholipidosis, LipidTOX Red imaging, 24 h; series mostly up to 38.3 µM
Records with an inconclusive call do not appear. Calls of active or inactive are those of the source. Calls follow the shape of the dose curve; as a rule, active = well fitted activation curve with a large enough effect; inconclusive = small, poorly fitted or top-dose-only effect; inactive = flat fitted curve, though single readings scatter.
// allowed return values: Yes for active, No for inactive

Example entries and their recorded answers appear below.
[
  {
    "compound": "C[C@@H](NCCCc1cccc(C(F)(F)F)c1)c1cccc2ccccc12",
    "category": "No"
  },
  {
    "compound": "CCCCCCCCNC(C)C(O)c1ccc(SC(C)C)cc1 (stereo not given)",
    "category": "No"
  },
  {
    "compound": "CN(C/C=C/C#CC(C)(C)C)Cc1cccc2ccccc12",
    "category": "No"
  }
]

Would you kindly look at the next entry?
Problem: Could you please tell me the result logged for CC(C)(C)C(=O)OCOC(=O)[C@@H]1N2C(=O)[C@@H](NC(=O)[C@H](N)c3ccccc3)[C@H]2SC1(C)C in this assay?
Result: No

---

Biological target: Nuclear receptor subfamily 1 group I member 3 (Homo sapiens) (UniProt Q14994)
Sequence (Q14994 whole entry, looked up): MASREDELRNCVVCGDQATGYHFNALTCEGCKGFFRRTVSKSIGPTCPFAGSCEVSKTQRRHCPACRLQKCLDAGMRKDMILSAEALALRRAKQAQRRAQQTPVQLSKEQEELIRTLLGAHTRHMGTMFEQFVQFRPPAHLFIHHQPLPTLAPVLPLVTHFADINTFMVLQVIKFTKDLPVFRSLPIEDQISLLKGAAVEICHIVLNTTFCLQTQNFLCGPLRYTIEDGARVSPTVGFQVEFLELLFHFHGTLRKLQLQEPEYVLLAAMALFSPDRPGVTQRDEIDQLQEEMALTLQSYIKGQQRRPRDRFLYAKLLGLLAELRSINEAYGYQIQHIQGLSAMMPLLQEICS
Assay: qHTS assay to identify small molecule agonists of the constitutive androstane receptor (CAR) signaling pathway (AID 1224839);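 also: HepG2 cells stably carrying human CAR and a CYP2B6 luciferase reporter; nearly all actives have a fitted effect of over 15% in size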
Conditions: HepG2 hCAR CYP2B6-luciferase, agonist mode, 24 h; series mostly up to 92.4 µM
Records with an inconclusive call do not appear. Activity calls are given as the source filed them. Calls come from the whole dose curve; as a rule, active = well fitted activation curve with a large enough effect in the repeat runs; inconclusive = weak or mixed curves; inactive = no such curve, though single readings can be large or run the other way.
Write down one outcome, taken from active, inactive

Previously resolved entries follow.
[
  {
    "chemical string": "COc1ccc(-c2ccc3cc(C(=O)O)ccc3c2)cc1C12CC3CC(CC(C3)C1)C2",
    "category": "inactive"
  },
  {
    "chemical string": "N#CC1(c2ccc(F)cc2)CCC(=O)CC1",
    "category": "inactive"
  },
  {
    "chemical string": "CN1CCC(Nc2ncc3ncnc(Nc4ccc(F)c(Cl)c4)c3n2)CC1",
    "category": "inactive"
  },
  {
    "chemical string": "O=C(c1ccc(F)cc1)C1CCN(CCn2c(=O)[nH]c3ccccc3c2=O)CC1",
    "category": "inactive"
  },
  {
    "chemical string": "N/C(=N\\N=C\\c1ccc(Cl)cc1)N/N=C/c1ccc(Cl)cc1",
    "category": "inactive"
  }
]

Please turn your attention to the following entry.
Problem: Answer briefly: the call reported for CCCCCCCCCCCC[N+](C)(C)CCCCCCCCCCCC in this assay.
Result: inactive

---

Biological target: Peroxisome proliferator-activated receptor delta (Homo sapiens)
Test: qHTS assay to identify small molecule agonists of the peroxisome proliferator-activated receptor delta (PPARd) signaling pathway (AID 743212);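 also: HEK293H cells with PPARd UAS beta-lactamase reporter GeneBLAzer system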
Details: HEK293H PPARd-UAS-bla, beta-lactamase FRET ratio, 17 h; series mostly up to 62.6 µM
Inconclusive results are not listed. Calls of active or inactive are those of the source. Calls come from the whole dose curve.
Parameter call: string, one of 1.0 for active, 0.0 for inactive

Worked set:
[
  {
    "compound": "CNC(=O)c1ccccc1",
    "category": 0.0
  },
  {
    "compound": "CCCCN1CCCC[C@H]1C(=O)Nc1c(C)cccc1C",
    "category": 0.0
  },
  {
    "compound": "CCC(C)(C)C1CCCCC1OC(C)=O (configuration not stated)",
    "category": 0.0
  },
  {
    "compound": "Oc1cccc2cc3cccc(O)c3c(O)c12",
    "category": 0.0
  },
  {
    "compound": "CCCCCCCCCCCCCCCC(=O)OC[C@H](O)[C@H]1OC(=O)C(O)=C1O",
    "category": 1.0
  },
  {
    "compound": "CC(=O)SC[C@@H](Cc1ccccc1)C(=O)NCC(=O)OCc1ccccc1",
    "category": 0.0
  }
]

Next, consider the following compound.
Problem: Dear colleague, could you share the recorded outcome for Oc1ccc2cc(SSc3ccc4cc(O)ccc4c3)ccc2c1 when you have a moment?
Result: 0.0

---

Target: Cytochrome P450 1A2 (Homo sapiens)
Experiment: Cytochrome P450 Family 1 Subfamily A Member 2 (CYP1A2) small molecule antagonists: luciferase reporter qHTS assay (AID 1671199); also: nearly all actives have a fitted effect of over 50% in size
Settings: P450-Glo CYP1A2 enzyme, luciferin luminescence, 1 h; series mostly up to 53 µM
Results filed as inconclusive are left out. Calls of active or inactive are those of the source. The call rests on the fitted dose curve; in most records, active means well fitted inhibition curve with a large enough effect in the repeat runs; inconclusive means weak or mixed curves; inactive means no such curve, though single readings can be large or run the other way.
Mark one answer only. Choices: Yes (active), No (inactive)

Reference set, count: 3
[
  {
    "compound": "CCCCCCCC[N+](CCCCCCCC)(CCCCCCCC)CCCCCCCC",
    "category": "Yes"
  },
  {
    "compound": "CCCC(=O)OC[C@@H](OC(=O)CCC)[C@@H](OC(=O)CCC)[C@H](Cn1c2nc(=O)[nH]c(=O)c-2nc2cc(C)c(C)cc21)OC(=O)CCC",
    "category": "No"
  },
  {
    "compound": "CO[Si](CCCNc1ccccc1)(OC)OC",
    "category": "No"
  }
]

Now consider a different compound.
Problem: What is the recorded call for this compound in the test? O=CC=C(c1ccccc1)c1ccccc1
Result: Yes

---

Assay: qHTS RealTime-Glo MT Cell Viability Assay in HEK293 cells - 24 hour (AID 1224886); also: nearly all actives have a fitted effect of over 50% in size
Details: RealTime-Glo luminescence; series mostly up to 76.8 µM
Source text: National Center for Advancing Translational Sciences [NCATS] NIH Chemical Genomics Center [NCGC] U.S. Environmental Protection Agency [EPA] National Institutes of Environmental Health Sciences [NIEHS] National Toxicology Program [NTP] U.S. Food and Drug Administration [FDA] Measure of cell viability is critical in the cell-base assay. Analysis of cell viability is necessary for the characterization of cell responses to cytotoxic drugs and environmental stress. […]
Records with an inconclusive call do not appear. Active and inactive are the calls of the source. Calls follow the shape of the dose curve; as a rule, active = well fitted cell-killing curve with a large enough effect in the repeat runs; inconclusive = weak or mixed curves, or effect the other way; inactive = flat fitted curve, though single readings scatter.
Outcome (select one): active, inactive

[
  {
    "compound": "CCCCCCCCCCCCCCCC(=O)OC[C@H](O)[C@H]1OC(=O)C(O)=C1O",
    "category": "inactive"
  },
  {
    "compound": "CC1(C)CCC(C)(C)c2cc(C(=O)Nc3ccc(C(=O)O)cc3)ccc21",
    "category": "inactive"
  },
  {
    "compound": "C[C@@H]1C[C@H]2[C@@H]3CCC4=CC(=O)C=C[C@]4(C)[C@@]3(Cl)[C@@H](O)C[C@]2(C)[C@@]1(OC(=O)c1ccco1)C(=O)CCl",
    "category": "inactive"
  },
  {
    "compound": "CCCCCCCC/C=C\\CCCCCCCCOCCO",
    "category": "active"
  },
  {
    "compound": "NC(=O)N1C(=O)C(C(=O)c2cc(Cl)cs2)c2cc(F)c(Cl)cc21 (stereo unspecified)",
    "category": "inactive"
  }
]

Problem: Can you look up the reported call for CCCCCCCC[P+](CCCCCCCC)(CCCCCCCC)CCCCCCCC for me?
Result: active

Problem: Record: NNC(=O)c1cccc(C(=O)NN)c1
Result: inactive

Problem: Repeat for the following compound: CCCCCCCCNC(C)C(O)c1ccc(SC(C)C)cc1 (stereo unspecified)
Result: active

Problem: Same thing, different compound: On1ccccc1=S
Result: active

Problem: Repeat for the following compound: CCCCCCCCCCC=O
Result: inactive

Problem: Request: CSc1ccc(C(=O)c2[nH]c(=O)[nH]c2C)cc1
Result: inactive

---

Assay: qHTS assay for identifying genotoxic compounds that show differential cytotoxicity against isogenic chicken DT40 cell lines with known DNA damage response pathways - Rad54/Ku70 mutant cell line (AID 743015); also: nearly all actives have a fitted effect of over 60% in size
Details: DT40 Rad54/Ku70 mutant viability, CellTiter-Glo, 40 h; series mostly up to 66.8 µM
Records with an inconclusive call do not appear. Calls of active or inactive are those of the source. The call rests on the fitted dose curve; in most records, active means well fitted cell-killing curve with a large enough effect in the repeat runs; inconclusive means weak or mixed curves; inactive means no such curve, though single readings can be large or run the other way.
Form entry, call: pick from active, inactive

Here's what some known entries look like.
[
  {
    "compound": "Oc1ccc(C2(c3ccc(O)cc3)CC3CC2C2CCCC32)cc1 (stereo not given)",
    "category": "inactive"
  },
  {
    "compound": "Fc1ccc(C(c2ccc(F)cc2)N2CCN(C/C=C/c3ccccc3)CC2)cc1",
    "category": "active"
  },
  {
    "compound": "CN(C)C(=O)C1(N2CCCCC2)CCN(CC[C@@]2(c3ccc(Cl)c(Cl)c3)CN(C(=O)c3ccccc3)CCO2)CC1",
    "category": "active"
  },
  {
    "compound": "CCCCCCCC/C=C\\CCCCCCCCOCCO",
    "category": "active"
  },
  {
    "compound": "O=[N+]([O-])c1cc(Cl)c(Cl)c(Cl)c1Cl",
    "category": "inactive"
  }
]

Problem: Please state the recorded outcome for this compound: O=C(Nc1ccc(Oc2ccc(Cl)cc2)c(Cl)c1)c1cc(I)cc(I)c1O
Result: inactive

Problem: Next up: C=C(C)C(=O)OCC(O)COc1ccc(C(C)(C)c2ccc(OCC(O)COC(=O)C(=C)C)cc2)cc1 (stereo not given)
Result: active

Problem: Can you handle O=C1C=CC(=O)N1 next?
Result: active

Problem: Then CCCCCCCCOC(=O)c1ccc(O)cc1 ?
Result: active

Problem: Now consider Cc1cc(O)c(Cl)c(C)c1Cl and answer again.
Result: active

Problem: Proceed to CSc1ccc2c(c1)C(N1CCN(C)CC1)Cc1ccccc1S2 (stereo not given)
Result: active

Problem: Likewise for C[n+]1cc2c3c(ccc2c2ccc4cc5c(cc4c21)OCO5)OCO3 ?
Result: active

Problem: Subsequent entry: Cc1cccc(S(=O)(=O)O)c1C
Result: inactive

Problem: Same question, CCCCCCCCCCCCc1ccc(O)cc1 this time
Result: active

Problem: Next compound: N=C1N=C(N)c2ccccc21
Result: active

Problem: Also c1ccc(CSCc2ccccc2)cc1 ?
Result: inactive

Problem: Please do the same for CCOC(=O)c1nc(C(Cl)(Cl)Cl)n(-c2ccc(Cl)cc2Cl)n1 as well.
Result: active

Problem: Could you do the same for CC(C)CCCCCCCCCCCCCCC(=O)O , please?
Result: inactive

Problem: Again, but for Clc1ccc2cc3ccccc3cc2c1
Result: inactive

Problem: Param item: NC(=NCCCCCCN=C(N)/N=C(\N)Nc1ccc(Cl)cc1)/N=C(\N)Nc1ccc(Cl)cc1
Result: active

Problem: How about this compound: NNc1nc(-c2ccccc2)cs1
Result: inactive

Problem: # repeat for O=C(Nc1cccc([N+](=O)[O-])c1)c1cc2ccccc2cc1O
Result: active
